Biological target: TBK1 (Homo sapiens (Human))
Assay: TBK1 low ATP kinase assay (in vitro assay 1)
Type: biochemical
Details: in vitro assay 1, read-out: TBK1 low ATP kinase assay IC50
pIC50: −log10 of the molar value.
Label yes (1) when pIC50 is at or above 7; otherwise label no (0).

Q) Item `Cc1noc(-c2ccc3nc(Nc4cc(CN5CCN(C(=O)C6CC6)CC5(C)C)ccn4)[nH]c3c2)n1` with pIC50 of 7 or above?
A) no (0)

Q) Answer whether pIC50 of `O=C(C1CC1)N1CCN(Cc2ccnc(Nc3nc4ccc(-c5ccsc5Cl)cc4[nH]3)c2)CC1` is greater than or equal to 7.
A) no (0)

Q) Record COc1cncnc1-c1ccc2nc(Nc3cc(C(C)N4CCN(C(=O)CC(F)(F)F)CC4)ccn3)[nH]c2c1 (single isomer, unassigned) [Example 35.03.01.B] ; criterion: pIC50 no lower than 7. Met?
A) yes (1)

Q) Check this molecule for pIC50 at or above 7: CC(c1ccnc(Nc2nc3ccc(-c4cc(N5CC(C(F)(F)F)C5)ncn4)cc3[nH]2)c1)N1CCN(C(=O)OC(C)(C)C)CC1 (single isomer, unassigned)
A) yes (1)

---

Molecular target: TBK1 (Homo sapiens (Human), UniProt Q9UHD2)
Sequence (Q9UHD2 whole entry): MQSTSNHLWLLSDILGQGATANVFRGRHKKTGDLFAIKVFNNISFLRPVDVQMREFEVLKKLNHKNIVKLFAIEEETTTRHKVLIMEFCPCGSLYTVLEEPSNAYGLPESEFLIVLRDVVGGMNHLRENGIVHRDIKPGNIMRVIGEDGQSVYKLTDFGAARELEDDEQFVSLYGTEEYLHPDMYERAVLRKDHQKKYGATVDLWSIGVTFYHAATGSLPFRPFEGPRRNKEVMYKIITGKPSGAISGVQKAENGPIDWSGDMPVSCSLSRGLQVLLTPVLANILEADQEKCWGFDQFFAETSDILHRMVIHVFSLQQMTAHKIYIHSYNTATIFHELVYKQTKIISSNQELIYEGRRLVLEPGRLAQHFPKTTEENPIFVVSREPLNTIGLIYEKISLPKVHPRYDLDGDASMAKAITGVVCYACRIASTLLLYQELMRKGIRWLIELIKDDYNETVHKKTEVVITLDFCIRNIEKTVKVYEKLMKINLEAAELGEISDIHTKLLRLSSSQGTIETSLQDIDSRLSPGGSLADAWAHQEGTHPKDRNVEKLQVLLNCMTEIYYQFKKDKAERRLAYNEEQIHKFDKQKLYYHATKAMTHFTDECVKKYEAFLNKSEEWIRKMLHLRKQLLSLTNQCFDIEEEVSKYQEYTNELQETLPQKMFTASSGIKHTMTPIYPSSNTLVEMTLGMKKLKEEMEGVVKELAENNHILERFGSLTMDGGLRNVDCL
Test: TBK1 low ATP kinase assay (in vitro assay 1)
Type: biochemical
Conditions: in vitro assay 1, read-out: TBK1 low ATP kinase assay IC50
assay-metric: IC50 (µM)
Value expressed in µM; do not type the unit.

compound | assay-metric | experimental-value
COc1cccnc1N1CCN(Cc2ccnc(Nc3nc4ccc(-c5nc(C)no5)cc4[nH]3)c2)CC1 [Example 101.17] | IC50 | 0.15
Cc1c[nH]c(-c2ccc3nc(Nc4cc(CN5CCN(C(=O)C6CC6)CC5)ccn4)[nH]c3c2)n1 [Example 43.02] | IC50 | 1.84
Clc1ccccc1N1CCN(Cc2ccnc(Nc3nc4ccc(-c5noc(C6CC6)n5)cc4[nH]3)c2)CC1 [Example 22.01] | IC50 | 0.481

Q) May I ask what IC50 has been recorded for Cc1nc(Cl)cc(-c2ccc3nc(Nc4cc(CN5CCN(C(=O)OC(C)(C)C)CC5)ccn4)[nH]c3c2)n1 [Example 186.01] ?
A) 0.0591

---

Measured pIC50, listed per entry.
Target: UniProtKB Q9UHD2
Assay: TBK1 low ATP kinase assay (in vitro assay 1)
Assay type: biochemical
Conditions: in vitro assay 1, read-out: TBK1 low ATP kinase assay IC50
Lab note — pIC50 values are minus log10 of concentrations in M.

Observe how each entry below is paired with its result.
molecule | tested-on | assay-metric | experimental-value
C=CCC(=O)N1CCN(Cc2ccnc(Nc3nc4ccc(-c5nc(C6CC6)no5)cc4[nH]3)c2)CC1 [Example 17.04] | UniProtKB Q9UHD2 | pIC50 | 6.99
COc1cncnc1-c1ccc2nc(Nc3cc(C(C)N4CCN(C(=O)CC5CC5)CC4)ccn3)[nH]c2c1 (single isomer, unassigned) [Example 35.03.02.B] | UniProtKB Q9UHD2 | pIC50 | 7.48
COc1cncnc1-c1ccc2nc(Nc3cc(CN4CCN(C(=O)N5CCOCC5)CC4)ccn3)[nH]c2c1 [Example 35.01.07] | UniProtKB Q9UHD2 | pIC50 | 7.11
Cc1noc(-c2ccc3nc(Nc4cc(CN5CCN(c6ccccc6F)CC5)ccn4)[nH]c3c2)n1 [Example 101.02] | UniProtKB Q9UHD2 | pIC50 | 6.17

Q) Given the molecule CC(c1ccnc(Nc2nc3ccc(-c4cnn(CC5CC5(F)F)c4)cc3[nH]2)c1)N1CCN(C(=O)C2CC2)CC1 (single isomer, unassigned) [Example 55.03.01] , what is its reported pIC50?
A) 9.21

Q) I would be grateful if you could share the reported pIC50 for CC(c1ccnc(Nc2nc3ccc(-c4cc(N5CC(F)(F)C5)ncn4)cc3[nH]2)c1)N1CCN(C(=O)C2(C(F)(F)F)CC2)CC1 (single isomer, unassigned) [Example 116.04] .
A) 9.00
